Assayed Target: Serine/threonine-protein kinase Chk1 (Homo sapiens)
Run Parameters: at 1 µM
Provide the reported inhibition of each item.
All answers are understood in %, so give the number only.

Exercise: # query: inhibition | item COc1cc(Nc2nccc(-c3cnn4ncccc34)n2)cc(OC)c1 | system: Serine/threonine-protein kinase Chk1 (Homo sapiens)
Key: 7.68

Exercise: Checklist item: inhibition tested on Serine/threonine-protein kinase Chk1 (Homo sapiens), entry COC(=O)Nc1nc2cc(Oc3ccc(NC(=O)Nc4cccc(Br)c4)cc3)ccc2[nH]1 , value?
Key: 2.72

Exercise: Serine/threonine-protein kinase Chk1 (Homo sapiens) / inhibition / Oc1cccc(-c2nc(-c3ccccc3)[nH]c2-c2ccncc2)c1 : value?
Key: 6.28

Exercise: I'm curious: which inhibition was measured for CCCN1CCCC(c2ccc(Nc3nc(Nc4cc(F)ccc4C(N)=O)c4cc[nH]c4n3)c(OC)c2)C1 (stereo not given) tested on Serine/threonine-protein kinase Chk1 (Homo sapiens)?
Key: 8.07

Exercise: # query: inhibition | item CC(C)c1ccc(Nc2nccc(-c3cnn4ncccc34)n2)cc1 | system: Serine/threonine-protein kinase Chk1 (Homo sapiens);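 further: mean inhibition of CHEK1, part of the GSK PKIS profiling set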
Key: -2.41

----------
Assayed Target: Tyrosine-protein kinase FRK (Homo sapiens) (UniProt P42685);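 further: values are mean inhibition of PTK5 (FRK) kinase activity from the GSK PKIS screening set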
Sequence (P42685 whole entry): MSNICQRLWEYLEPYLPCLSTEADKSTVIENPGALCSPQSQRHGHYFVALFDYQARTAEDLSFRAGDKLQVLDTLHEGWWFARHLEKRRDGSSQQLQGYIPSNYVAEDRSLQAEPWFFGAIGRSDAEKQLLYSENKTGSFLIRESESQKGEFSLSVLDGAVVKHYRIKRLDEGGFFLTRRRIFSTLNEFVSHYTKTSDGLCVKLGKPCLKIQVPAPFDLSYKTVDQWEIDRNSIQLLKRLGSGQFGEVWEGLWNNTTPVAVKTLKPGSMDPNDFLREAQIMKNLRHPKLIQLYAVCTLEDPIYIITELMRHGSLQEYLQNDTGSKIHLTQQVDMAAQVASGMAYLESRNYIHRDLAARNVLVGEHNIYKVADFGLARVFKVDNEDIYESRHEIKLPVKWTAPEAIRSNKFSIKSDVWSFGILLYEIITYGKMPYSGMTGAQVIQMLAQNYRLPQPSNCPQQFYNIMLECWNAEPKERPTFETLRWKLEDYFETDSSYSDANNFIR
Run Parameters: at 0.1 µM
Reported inhibition maps to class as: lower: < 2%; middle: ≥ 2% and < 3%; upper: ≥ 3%

Exercise: Category of C[C@@H](Oc1cc(-n2cnc3ccc(OC[C@@H](O)CO)cc32)sc1C(N)=O)c1ccccc1Cl :
Key: lower

Exercise: read the entry FC(F)(F)c1ccc(-c2nn3ncccc3c2-c2ccnc(Nc3ccc4c(c3)OCCO4)n2)cc1 and state which class it falls under.
Key: lower

Exercise: Class? Entry: COc1cc2ncn(-c3cc(OCc4ccccc4S(C)(=O)=O)c(C#N)s3)c2cc1OC
Key: upper

Exercise: Given COc1cc(/C=N/Nc2ncnc3c2cnn3C(C)C)ccc1O , name the class its inhibition places it in.
Key: middle

Exercise: Sort O=C1Nc2ccc(-c3cccnc3)cc2C1=Cc1cc(Br)c(O)c(Br)c1 into one of the categories.
Key: lower

Exercise: Any idea which band COc1cccc(-n2ncc3c(N/N=C/c4ccc(C)cc4)ncnc32)c1 is in?
Key: middle

Exercise: Determine which band this compound sits in: COC(=O)c1cncc(/C=C/c2c(C)cc(O)cc2C)c1
Key: middle

Exercise: Into which bin does this compound go? [O-][S+]1CCN(Cc2ccc(-c3ccc4ncnc(Nc5ccc(OCc6ccccc6)c(Cl)c5)c4c3)o2)CC1
Key: lower

Exercise: Exam item: assign Cc1nc(-c2ccccc2)n2nc(NCCCN3CCOCC3)ncc12 to the correct category.
Key: upper

Exercise: Textbook exercise: identify the category of the compound given here, ON=C1CCc2cc(-c3nc(C4CCNCC4)[nH]c3-c3ccncc3)ccc21 , according to its measured value.
Key: middle

----------
Assayed Target: Tyrosine-protein kinase ITK/TSK (Homo sapiens) (UniProt Q08881);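 further: values are mean percent inhibition of ITK from the GSK PKIS screen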
Sequence (whole entry): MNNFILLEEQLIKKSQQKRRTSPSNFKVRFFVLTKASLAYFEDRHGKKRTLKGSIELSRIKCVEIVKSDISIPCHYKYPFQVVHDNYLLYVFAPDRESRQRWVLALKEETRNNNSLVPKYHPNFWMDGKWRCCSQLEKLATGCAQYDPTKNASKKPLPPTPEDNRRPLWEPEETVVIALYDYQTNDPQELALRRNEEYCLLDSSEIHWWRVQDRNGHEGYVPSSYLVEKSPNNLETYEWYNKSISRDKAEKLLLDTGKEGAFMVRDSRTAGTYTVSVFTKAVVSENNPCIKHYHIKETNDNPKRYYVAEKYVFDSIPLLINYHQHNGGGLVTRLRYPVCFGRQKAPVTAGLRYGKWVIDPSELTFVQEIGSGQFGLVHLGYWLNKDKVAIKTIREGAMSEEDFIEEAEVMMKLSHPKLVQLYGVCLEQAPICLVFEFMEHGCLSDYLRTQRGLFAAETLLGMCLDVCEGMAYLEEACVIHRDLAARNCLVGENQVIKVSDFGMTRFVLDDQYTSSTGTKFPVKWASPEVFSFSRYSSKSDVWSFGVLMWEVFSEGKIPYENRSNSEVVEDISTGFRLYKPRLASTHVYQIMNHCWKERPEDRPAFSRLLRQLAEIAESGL
Run Parameters: at 1 µM
Experimental Endpoint: inhibition (%)
Report the figure in % without appending any unit label.

Exercise: Which inhibition is reported for this molecule? C[C@@H](Oc1cc(-n2cnc3ccc(OCC4CCN(C)CC4)cc32)sc1C(N)=O)c1ccccc1C(F)(F)F
Key: 0.89

Exercise: Quick one: inhibition for Nc1nccc(-c2c(-c3ccc(F)cc3)ncn2CCCN2CCOCC2)n1 ?
Key: 2.18

Exercise: Need inhibition, item NS(=O)(=O)c1ccc(NC=C2C(=O)Nc3ccc4ncsc4c32)cc1
Key: 15.1

Exercise: Please report the recorded inhibition for COC(=O)c1ccc2c(c1)C(=Cc1cc(Br)c(O)c(Br)c1)C(=O)N2 .
Key: 3

Exercise: Reported inhibition, molecule CN(C)C(=O)O[C@@H]1CN[C@@H](C#Cc2cc3ncnc(Nc4ccc(OCc5cccc(F)c5)c(Cl)c4)c3s2)C1 : ____
Key: 0.1

Exercise: Which inhibition value is on record for CCOc1nccc2c1nc(-c1nonc1N)n2CC ?
Key: 3.31

Exercise: Query (molecule): COc1cccc(-n2ncc3c(N/N=C/c4ccc(S(C)(=O)=O)cc4)ncnc32)c1 ; field requested: inhibition
Key: 0.29

Exercise: I would be grateful if you could share the reported inhibition for FC(F)(F)c1ccc(-c2nn3ncccc3c2-c2ccnc(Nc3ccc4c(c3)OCCO4)n2)cc1 .
Key: 4.7

Exercise: Field request: inhibition | item: Cc1ccc2c(-c3ccnc(Nc4ccc5c(c4)OCCO5)n3)c(-c3ccc(C(F)(F)F)cc3)nn2n1
Key: 1.1
